target: Recombinant human EIF2AK3 (PERK) catalytic domain (amino acids 536-1116) (Homo sapiens (Human)); assay: PERK In Vitro Activity Assay (isolated), TR-FRET kinase assay; details: isolated PERK enzyme, 1.5 μM ATP, read-out: Biochemical IC50
Sequence (Q9NZJ5 536-1116): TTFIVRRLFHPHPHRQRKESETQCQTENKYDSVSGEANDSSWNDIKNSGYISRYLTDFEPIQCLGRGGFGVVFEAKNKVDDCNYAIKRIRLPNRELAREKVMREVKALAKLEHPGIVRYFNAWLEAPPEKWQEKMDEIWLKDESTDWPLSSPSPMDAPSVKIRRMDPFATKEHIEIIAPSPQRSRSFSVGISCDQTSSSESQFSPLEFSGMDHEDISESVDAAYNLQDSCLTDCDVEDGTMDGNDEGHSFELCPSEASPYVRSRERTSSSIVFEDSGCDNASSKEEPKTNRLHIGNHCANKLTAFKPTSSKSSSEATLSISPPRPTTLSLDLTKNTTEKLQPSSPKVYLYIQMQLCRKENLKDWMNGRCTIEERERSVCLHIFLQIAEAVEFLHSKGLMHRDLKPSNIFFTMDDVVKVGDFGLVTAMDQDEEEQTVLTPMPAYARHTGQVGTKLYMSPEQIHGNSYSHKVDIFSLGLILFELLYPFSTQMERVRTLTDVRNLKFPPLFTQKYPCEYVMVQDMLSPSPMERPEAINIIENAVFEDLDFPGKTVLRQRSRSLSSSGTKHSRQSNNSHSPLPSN
attribute_measured: IC50

Use these answered entries as a reference point.
compound="[2H]C([2H])([2H])c1nc(-c2ccc(NC(=O)C(O)c3cccc(C(F)(F)F)c3)c(F)c2F)c2c(N)ncc(C(F)(F)F)n12 (centres unmarked) [Example 149]" attribute_measured=IC50 result="501 to 1000 nM"
compound="[2H]C([2H])([2H])c1nc(-c2cnc(NC(=O)C(O)c3cccc(C(F)(F)F)c3)cc2C)c2c(N)nc(C)cn12 (centres unmarked) [Example 183]" attribute_measured=IC50 result="251 to 500 nM"
compound="Cc1cnc(N)c2c(-c3ccc(NC(=O)C(O)c4cccc(F)c4)cc3F)nc(C)n12 (centres unmarked) [Example 71]" attribute_measured=IC50 result="1 to 25 nM"
compound="[2H]C([2H])([2H])c1nc(-c2ccc(NC(=O)C(O)c3cccc(C(F)(F)F)c3)nc2C)c2c(N)nc(C)cn12 (centres unmarked) [Example 177]" attribute_measured=IC50 result="101 to 250 nM"
compound="[2H]C([2H])([2H])c1nc(-c2ccc(NC(=O)C(O)c3cccc(Cl)c3)cc2F)c2c(N)ncc(C(F)(F)F)n12 (centres unmarked) [Example 83]" attribute_measured=IC50 result="1 to 25 nM"
compound="[2H]C([2H])([2H])c1nc(-c2ccc(NC(=O)C(O)c3cccc(C(F)(F)F)c3)c(F)c2F)c2c(N)ncc(C(F)(F)F)n12 (centres unmarked) [Example 148]" attribute_measured=IC50 result="1 to 25 nM"
compound="[2H]C([2H])([2H])c1nc(-c2ccc(NC(=O)C(O)c3cccc(C)c3)cc2F)c2c(N)ncc(C)n12 (centres unmarked) [Example 90]" attribute_measured=IC50 result="1 to 25 nM"
compound="[2H]C([2H])([2H])c1nc(-c2ccc(NC(=O)C(O)c3cc(F)cc(C(F)(F)F)c3)cc2F)c2c(N)nc(C)cn12 (centres unmarked) [Example 116]" attribute_measured=IC50 result="1 to 25 nM"
compound="[2H]C([2H])([2H])c1nc(-c2ccc(NC(=O)C(O)c3cc(F)cc(F)c3)cc2F)c2c(N)ncc(Cl)n12 (centres unmarked)" attribute_measured=IC50 result="1 to 25 nM"
compound="[2H]C([2H])([2H])c1nc(-c2ccc(NC(=O)C(O)c3cccc(F)c3)cc2C)c2c(N)ncc(C)n12 (centres unmarked)" attribute_measured=IC50 result="1 to 25 nM"

Give its IC50 value. Item: Cc1cnc(N)c2c(-c3ccc(NC(=O)C(O)c4cccc(F)c4)cc3)nc(C)n12 (centres unmarked) [Example 69]
1 to 25 nM

Also [2H]C([2H])([2H])c1nc(-c2ccc(NC(=O)C(O)c3cccc(C(F)(F)F)c3)cc2F)c2c(N)ncc(C)n12 (centres unmarked) [Example 94] ?
1 to 25 nM

Also [2H]C([2H])([2H])c1nc(-c2ccc(NC(=O)C(O)c3cccc(F)c3)cc2F)c2c(N)ncc(Cl)n12 (centres unmarked) [Example 74] ?
1 to 25 nM

Also Cc1cnc(N)c2c(-c3ccc(NC(=O)C(O)c4cccc(F)c4)cc3)nc(C)n12 (centres unmarked) [Example 68] ?
1 to 25 nM
